Where these numbers come from: patent US20240124469A1

// reported F for each item listed
experimental_details: Pharmacokinetic test
Format: in vivo
reported_conditions: BALB/c mice, oral administration, 50 mg/kg
Dear colleague, please return just the value in %, with no unit written.

See these solved cases before continuing.
                                   compound  metric  test_result
0  CC(C)(O)[C@H]1CC[C@H](Nc2ccc3ncc(-c4cccc(C(F)(F)F)c4)n3n2)CC1 [TP-3654, reference compound]       F         42.3
1  OC[C@@H]1CC[C@@H](Nc2ccc3ncc(-c4ccc(C(F)(F)F)s4)n3n2)CO1 [Compound 46]       F         89.9
2  CC(C)(O)[C@H]1CC[C@H](Nc2ccc3ncc(-c4ccc(C(F)(F)F)s4)n3n2)CC1 [Compound 20]       F         66.6

Could you tell me which F is on file for OC12CCC(Nc3ccc4ncc(-c5ccc(C(F)(F)F)s5)n4n3)(CC1)CC2 [Compound 29] ? 35.7

---

experimental_details: Pharmacokinetic test
Type: in vivo
reported_conditions: female, mouse, plasma; BALB/c mice, intravenous injection, 2 mg/kg; read-out: Terminal t1/2 (converted)
// reported half-life for each item listed
Dear colleague, please return just the value in min, with no unit written.

                                   compound  unit_descriptor  test_result
0  OC[C@@H]1CC[C@@H](Nc2ccc3ncc(-c4ccc(C(F)(F)F)s4)n3n2)CO1 [Compound 46]              min         15.6
1  CC(C)(O)[C@H]1CC[C@H](Nc2ccc3ncc(-c4ccc(C(F)(F)F)s4)n3n2)CC1 [Compound 20]              min         63.6
2  OC12CCC(Nc3ccc4ncc(-c5ccc(C(F)(F)F)s5)n4n3)(CC1)CC2 [Compound 29]              min         25.2

Let us examine a further case.
Could you tell me which half-life is on file for CC(C)(O)[C@H]1CC[C@H](Nc2ccc3ncc(-c4cccc(C(F)(F)F)c4)n3n2)CC1 [TP-3654, reference compound] ? 74.4

---

study_target: PIM1 (Homo sapiens (Human), UniProt P11309)
Sequence (P11309 whole entry): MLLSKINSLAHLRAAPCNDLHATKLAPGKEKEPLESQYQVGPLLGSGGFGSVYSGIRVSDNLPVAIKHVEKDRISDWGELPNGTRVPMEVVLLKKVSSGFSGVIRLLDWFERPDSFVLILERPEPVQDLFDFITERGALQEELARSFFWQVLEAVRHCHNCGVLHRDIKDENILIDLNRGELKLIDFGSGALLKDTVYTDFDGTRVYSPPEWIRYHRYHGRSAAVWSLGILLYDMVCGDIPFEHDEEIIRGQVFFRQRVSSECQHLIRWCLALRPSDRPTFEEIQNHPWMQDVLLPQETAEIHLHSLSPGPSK
experimental_details: PIM1 kinase activity test (Mobility shift assay)
Assay type: biochemical
Protocol: The efficacy of the compounds on the activity of PIM1/2/3 was tested by utilizing the Mobility shift assay method, with the specific procedures shown as follows: the test compounds were each dissolved in DMSO to be prepared into a 10 mM stock solution; for each of the test compounds, the stock solution was subjected to a 3-fold dilution from an initial concentration of 10 μM to obtain 10 concentrations. […]
// reported IC50 for each item listed

See these solved cases before continuing.
In [3]: df
Out[3]:
                                   compound   test_result
0  FC(F)(F)c1cccc(-c2cnc3ccc(NC4CC5(CCNCC5)C4)nn23)c1 [Compound 16]    2 to 10 nM
1  FC(F)(F)c1ccc(-c2cnc3ccc(NC4CCCNCC4)nn23)s1 (centres unmarked) [Compound 28]        < 2 nM
2  CC(C)(O)[C@H]1CC[C@H](Nc2ccc3ncc(-c4cccs4)n3n2)CC1 [Compound 14]  10 to 100 nM

Could you tell me which IC50 is on file for O[C@@H]1CCC[C@@H](Nc2ccc3ncc(-c4cccc(C(F)(F)F)c4)n3n2)CC1 [Compound 45] ? 10 to 100 nM

---

// reported IC50 for each item listed
study_target: PIM2 (Homo sapiens (Human))
Sequence (Q9P1W9 whole entry): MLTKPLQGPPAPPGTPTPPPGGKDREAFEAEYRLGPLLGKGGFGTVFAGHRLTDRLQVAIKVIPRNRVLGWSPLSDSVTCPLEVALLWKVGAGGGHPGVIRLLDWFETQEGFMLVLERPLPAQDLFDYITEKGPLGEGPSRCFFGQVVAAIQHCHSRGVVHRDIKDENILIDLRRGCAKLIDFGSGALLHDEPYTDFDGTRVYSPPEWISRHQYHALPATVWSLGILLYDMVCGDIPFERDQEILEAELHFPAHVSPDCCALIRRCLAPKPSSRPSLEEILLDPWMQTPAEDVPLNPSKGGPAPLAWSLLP
experimental_details: PIM2 kinase activity test (Mobility shift assay)
Assay type: biochemical
Experimental: The efficacy of the compounds on the activity of PIM1/2/3 was tested by utilizing the Mobility shift assay method, with the specific procedures shown as follows: the test compounds were each dissolved in DMSO to be prepared into a 10 mM stock solution; for each of the test compounds, the stock solution was subjected to a 3-fold dilution from an initial concentration of 10 μM to obtain 10 concentrations. […]

See these solved cases before continuing.
In [3]: df
Out[3]:
                                   compound       test_result
0  CC(C)(O)[C@H]1CC[C@H](Nc2ccc3ncc(-c4cccc(S(C)(=O)=O)c4)n3n2)CC1 [Compound 51]  1000 to 10000 nM
1  FC(F)(F)c1cccc(-c2cnc3ccc(NCC4CC5(CCNCC5)C4)nn23)c1 [Compound 15]  1000 to 10000 nM
2  FC(F)(F)c1cccc(-c2cnc3ccc(NCC4CC5(CCNC5)C4)nn23)c1 (stereo not shown) [Compound 18]    100 to 1000 nM

Let us examine a further case.
Could you tell me which IC50 is on file for O[C@H]1CCCC[C@@H](Nc2ccc3ncc(-c4cccc(C(F)(F)F)c4)n3n2)C1 [Compound 21] ? 1000 to 10000 nM

---

// reported IC50 for each item listed
study_target: PIM1 (Homo sapiens (Human))
experimental_details: PIM1 kinase activity test (Mobility shift assay)
Format: biochemical

See these solved cases before continuing.
>>> df
                                   molecule   test_result
0  OC12CCC(Nc3ccc4ncc(-c5ccc(C(F)(F)F)s5)n4n3)(CC1)CC2 [Compound 29]        < 2 nM
1  OC[C@@H]1CC[C@@H](Nc2ccc3ncc(-c4cccc(C(F)(F)F)c4)n3n2)CO1 [Compound 22]  10 to 100 nM
2  OC[C@H]1CC[C@H](Nc2ccc3ncc(-c4ccc(C(F)(F)F)s4)n3n2)CO1 [Compound 47]  10 to 100 nM

Let us examine a further case.
Could you tell me which IC50 is on file for FC(F)(F)c1ccc(-c2cnc3ccc(NC4CC5(CCNCC5)C4)nn23)s1 [Compound 31] ? < 2 nM

---

experimental_details: Pharmacokinetic test
Format: in vivo
reported_conditions: female, mouse, plasma; BALB/c mice, intravenous injection, 2 mg/kg; read-out: Vss
// reported Vd for each item listed
Dear colleague, please return just the value in L/kg, with no unit written.

Could you tell me which Vd is on file for OC[C@@H]1CC[C@@H](Nc2ccc3ncc(-c4ccc(C(F)(F)F)s4)n3n2)CO1 ? 1.47

Lookup OC12CCC(Nc3ccc4ncc(-c5ccc(C(F)(F)F)s5)n4n3)(CC1)CC2 1.38

Lookup CC(C)(O)[C@H]1CC[C@H](Nc2ccc3ncc(-c4cccc(C(F)(F)F)c4)n3n2)CC1 [TP-3654, reference compound] 5.58

Lookup CC(C)(O)[C@H]1CC[C@H](Nc2ccc3ncc(-c4ccc(C(F)(F)F)s4)n3n2)CC1 1.85

---

Tested on: Ba/F3-EPOR-JAK2-V617F
experimental_details: Cell inhibitory activity test (72 h CTG)
Format: cell-based
// reported IC50 for each item listed

                                   compound  metric    test_result
0  OC[C@@H]1CC[C@@H](Nc2ccc3ncc(-c4ccc(C(F)(F)F)s4)n3n2)CO1 [Compound 46]    IC50  100 to 150 nM
1  FC(F)(F)c1cccc(-c2cnc3ccc(NC4CC5(CCNCC5)C4)nn23)c1 [Compound 16]    IC50       > 150 nM

Could you tell me which IC50 is on file for CC(C)(O)[C@H]1CC[C@H](Nc2ccc3ncc(-c4ccc(C(F)(F)F)s4)n3n2)CC1 [Compound 20] ? < 50 nM

Lookup FC(F)(F)c1ccc(-c2cnc3ccc(NC4CC5(CCNCC5)C4)nn23)s1 [Compound 31] 50 to 100 nM

---

study_target: PIM1 (Homo sapiens (Human), UniProt P11309)
experimental_details: PIM1 kinase activity test (Mobility shift assay)
Type: biochemical
metric: IC50

In [3]: df
Out[3]:
                                   molecule  metric     test_result
0  CC(C)(O)[C@H]1CC[C@H](Nc2ccc3ncc(-c4cccc(C(F)(F)F)c4)n3n2)CC1 [TP-3654, reference compound]    IC50    10 to 100 nM
1  OC[C@@H]1CC[C@@H](Nc2ccc3ncc(-c4ccc(C(F)(F)F)s4)n3n2)CO1 [Compound 46]    IC50      2 to 10 nM
2  FC(F)(F)c1cccc(-c2cnc3ccc(NCC4CC5(CCNC5)C4)nn23)c1 (centres unmarked) [Compound 18]    IC50    10 to 100 nM
3  CC(C)(O)[C@H]1CC[C@H](Nc2ccc3ncc(-c4nccs4)n3n2)CC1 [Compound 17]    IC50  100 to 1000 nM
4  CC(C)(O)[C@H]1CC[C@H](Nc2ccc3ncc(-c4cccc(-c5ccco5)c4)n3n2)CC1 [Compound 48]    IC50    10 to 100 nM
5  O[C@@H]1CCCC[C@@H](Nc2ccc3ncc(-c4cccc(C(F)(F)F)c4)n3n2)C1 [Compound 44]    IC50  100 to 1000 nM
6  FC(F)(F)c1cccc(-c2cnc3ccc(NC4CC5(CCNC5)C4)nn23)c1 (centres unmarked) [Compound 24]    IC50  100 to 1000 nM

Could you tell me which IC50 is on file for CC(C)(O)[C@H]1CC[C@H](Nc2ccc3nc(C(=O)O)c(-c4cccc(C(F)(F)F)c4)n3n2)CC1 [Compound 42] ? 100 to 1000 nM
